methodNotes: activity coefficient (dimensionless); of the first substance listed, at infinite dilution; xn = mol fraction of the nth substance listed
appliedConditions: 323.15 K; 101.33 kPa; Liquid; Chromatography; x1 = 0
endpointName: activity coefficient
Field format: numeric only.

As a guide, the following entries are already answered.
1. c1ccccc1 [benzene] + C[n+]1ccn(CCCCS(=O)(=O)O)c1.O=S(=O)([N-]S(=O)(=O)C(F)(F)F)C(F)(F)F: 1.95
2. CC#N [acetonitrile] + C[n+]1ccn(CCCCS(=O)(=O)O)c1.O=S(=O)([O-])O: 1.74
3. CCC[N+](=O)[O-] [1-nitropropane] + C[n+]1ccn(CCCCS(=O)(=O)O)c1.O=S(=O)([O-])C(F)(F)F: 1.84

Req: Fill in: activity coefficient of Cc1ccccc1C [1,2-dimethylbenzene] + C[n+]1ccn(CCCCS(=O)(=O)O)c1.O=S(=O)([O-])O is ___
Resp: 43.8

Req: I am curious: what activity coefficient value has been reported for CCCCCCCCCCCC [dodecane] + C[n+]1ccn(CCCCS(=O)(=O)O)c1.O=S(=O)([O-])O ?
Resp: 1310

Req: Which activity coefficient reading was recorded for the molecule CCc1ccccc1 [ethylbenzene] + C[n+]1ccn(CCCCS(=O)(=O)O)c1.O=S(=O)([O-])O ?
Resp: 62.7

Req: Any idea what activity coefficient was measured for CCCCCCCCCCCCC [tridecane] + C[n+]1ccn(CCCCS(=O)(=O)O)c1.O=S(=O)([O-])C(F)(F)F ?
Resp: 1940

Req: Can you share its activity coefficient? I mean this molecule: CCCCCCCCCCCC [dodecane] + C[n+]1ccn(CCCCS(=O)(=O)O)c1.O=S(=O)([O-])C(F)(F)F
Resp: 1490

Req: Reported activity coefficient, molecule ClC(Cl)(Cl)Cl [tetrachloromethane] + C[n+]1ccn(CCCCS(=O)(=O)O)c1.O=S(=O)([N-]S(=O)(=O)C(F)(F)F)C(F)(F)F : ____
Resp: 7.71

---

methodNotes: activity coefficient (dimensionless); of the first substance listed, at infinite dilution; xn = mol fraction of the nth substance listed
appliedConditions: 323.15 K; 101.33 kPa; Liquid; Chromatography; x1 = 0
Listed here: items and their measured activity coefficient.
Could you keep your reply to the number by itself?

Consider the following illustrative entries.
1. CC#N [acetonitrile] + C[n+]1ccn(CCCCS(=O)(=O)O)c1.O=S(=O)([O-])C(F)(F)F: 0.68
2. ClCCl [dichloromethane] + C[n+]1ccn(CCCCS(=O)(=O)O)c1.O=S(=O)([O-])C(F)(F)F: 1.3
3. CCCC(C)=O [pentan-2-one] + C[n+]1ccn(CCCCS(=O)(=O)O)c1.O=S(=O)([O-])O: 13.4

In the following, a different compound is considered.
Req: So what's the measured activity coefficient for this one? CCCC(C)=O [pentan-2-one] + C[n+]1ccn(CCCCS(=O)(=O)O)c1.O=S(=O)([N-]S(=O)(=O)C(F)(F)F)C(F)(F)F
Resp: 0.42

---

methodNotes: activity coefficient (dimensionless); of the first substance listed, at infinite dilution; xn = mol fraction of the nth substance listed
appliedConditions: 343.15 K; 101.33 kPa; Liquid; Chromatography; x1 = 0
endpointName: activity coefficient

1) CCCCCCCCCCCCCC [tetradecane] + C[n+]1ccn(CCCCS(=O)(=O)O)c1.O=S(=O)([N-]S(=O)(=O)C(F)(F)F)C(F)(F)F: 941
2) C1CCCCCC1 [cycloheptane] + C[n+]1ccn(CCCCS(=O)(=O)O)c1.O=S(=O)([O-])C(F)(F)F: 287
3) CCCO [propan-1-ol] + C[n+]1ccn(CCCCS(=O)(=O)O)c1.O=S(=O)([N-]S(=O)(=O)C(F)(F)F)C(F)(F)F: 0.16
4) CCCCCCCCCCC [undecane] + C[n+]1ccn(CCCCS(=O)(=O)O)c1.O=S(=O)([O-])O: 1310
5) C1CCCCCC1 [cycloheptane] + C[n+]1ccn(CCCCS(=O)(=O)O)c1.O=S(=O)([N-]S(=O)(=O)C(F)(F)F)C(F)(F)F: 180

Req: Return reported activity coefficient; argument: ClC(Cl)(Cl)Cl [tetrachloromethane] + C[n+]1ccn(CCCCS(=O)(=O)O)c1.O=S(=O)([N-]S(=O)(=O)C(F)(F)F)C(F)(F)F
Resp: 8.1

Req: Name the recorded activity coefficient for CC(C)OC(C)C [diisopropyl ether] + C[n+]1ccn(CCCCS(=O)(=O)O)c1.O=S(=O)([O-])C(F)(F)F .
Resp: 14.9

Req: Fill blank: measured activity coefficient of the compound CCCCO [butan-1-ol] + C[n+]1ccn(CCCCS(=O)(=O)O)c1.O=S(=O)([N-]S(=O)(=O)C(F)(F)F)C(F)(F)F is ____.
Resp: 0.23

Req: // returns reported activity coefficient for input Cc1ccccc1 [toluene] + C[n+]1ccn(CCCCS(=O)(=O)O)c1.O=S(=O)([O-])O
Resp: 24.9

Req: Name the recorded activity coefficient for CCOCC [diethyl ether] + C[n+]1ccn(CCCCS(=O)(=O)O)c1.O=S(=O)([N-]S(=O)(=O)C(F)(F)F)C(F)(F)F .
Resp: 0.65
